Each recorded value in this set is attributed to PubChem BioAssay (NCI).

Method Description: NCI Yeast Anticancer Drug Screen. Data for the cln2 rad14 strain (AID 165);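 also: 0% = growth equal to vehicle treated cultures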
Particulars: S. cerevisiae cln2 rad14 strain, at 50.0 µM (retest, dose inferred, filed as 5.0)
About 79,000 compounds went through this panel and 15% of them were active in at least one assay; those are over-represented in the sample as a whole. Active and inactive are the calls of the source. Rule as the data show it: active = growth inhibition above about 70%; inactive = the rest.
In this exercise, the only acceptable responses are active, inactive

Consider the worked cases shown below.
Oc1ccc(-c2ccccc2)cc1Br | active
O=C1C=CC(=O)c2c(O)c(N3CCC[C@H]3CO)c(Cl)c(O)c21 | inactive
CCCCCCCCCCCCCCCCN(CC)CC | active
Cc1ccc(S(=O)(=O)Nc2ccccc2Cl)cc1 | active
CC(=O)O[C@H]1CC[C@]2(C)C3=CC[C@]4(C)[C@@H](C(C)=O)CC[C@H]4[C@@]34C=C[C@]2(C1)C1C(=O)OC(=O)C14 (stereo not given in full) | inactive

How was "COC(=O)Nc1nc2ccc(C(=O)c3ccccc3)cc2[nH]1" classified in this test?
inactive

Similarly, "CN(C)C(=O)c1ccc(SC(=S)NCc2ccccc2)cc1" ?
active

Similarly, "O=C1C=CC(=O)N1c1cccc(F)c1" ?
active

====

Method Description: NCI Yeast Anticancer Drug Screen. Data for the sgs1 mgt1 strain (AID 161);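 also: 0% = growth of cultures given vehicle only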
Particulars: S. cerevisiae sgs1 mgt1 strain, at 5.0 µM (retest, dose inferred, filed as 0.5), active compounds read high
About 79,000 compounds went through this panel and 15% of them were active in at least one assay; those are over-represented in the sample as a whole.
Endpoint: growth inhibition (%)
One number for each entry, in %.

Worked examples, 3 compounds total:
CCN(CC)CCOC(=O)CCN1CC2CCC(CC2)C1 | 17
CCOc1ccc2c(c1)[n+]([O-])c(-c1ccc(Cl)cc1)c(N)[n+]2[O-] | 50
Cn1cc(NC(=O)Nc2cc(C(=O)Nc3cc(C(=O)Nc4ccc5cc(S(=O)(=O)O)cc(S(=O)(=O)O)c5c4)n(C)c3)n(C)c2)cc1C(=O)Nc1cc(C(=O)Nc2ccc3cc(S(=O)(=O)O)cc(S(=O)(=O)O)c3c2)n(C)c1 | 69

Give growth inhibition for each listed item.
1. CCC(=O)c1ccc2ccc3ccccc3c2c1
2. N#Cc1cc2cccn2c2c1cnn2-c1ccccc1
3. Brc1cc2ccccc2c2ccccc12
4. COC(=O)c1c(C(N)=O)c(C)n(NC(=O)c2ccccc2)c1C

[4, -1, 7, -6]

====

Method Description: NCI Yeast Anticancer Drug Screen. Data for the mlh1 rad18 strain (AID 175)
Particulars: S. cerevisiae mlh1 rad18 strain growth inhibition; at 50.0 µM (retest, dose inferred, filed as 5.0); active compounds read high
The panel holds about 79,000 compounds, 15% with a hit somewhere; the sample as a whole holds those more often.
Endpoint: growth inhibition (%)
Answers are plain numbers, in %.

Worked examples, 2 molecules total:
CC(C)CCCCCCCCCCCCC(=O)NCC(=O)NC1C(C)OC(Nc2ncnc3nc[nH]c23)C(O)C1O (stereo unspecified) | 35
CC(C)(C)C1=NC(=S)SC2=NC(=O)C3(NN21)c1ccccc1-c1ccccc13 | 77

Give growth inhibition for each listed item.
1. Cn1c2c(c3ccccc31)CCN1C[C@@H]3CCCC[C@H]3C[C@@H]21
2. COc1ccc(C2CC(CO)ON2c2ccccc2)cc1 (stereo unspecified)

25
1

====

Method Description: NCI Yeast Anticancer Drug Screen. Data for the mlh1 rad18 strain (AID 175)
Particulars: S. cerevisiae mlh1 rad18 strain growth inhibition; at 5.0 µM (retest, dose inferred, filed as 0.5)
Compounds without any hit were thinned out: in the full panel of roughly 79,000, 15% have a hit. The source made the active and inactive calls. Cut-off read from the data, not from the text of the source: active = growth inhibition above about 70%; inactive = the rest.
In this exercise, the only acceptable responses are yes (1) for active, no (0) for inactive

Consider the worked cases shown below.
O=C(Nc1ccc(S(=O)(=O)NC2CCCCC2)cc1)OC1CCCCC1 | no (0)
OC(c1cc2ccccc2o1)c1cc2ccccc2s1 (stereo not drawn) | no (0)
COC1=CC(=O)c2c(O)c3c(c(O)c2C1=O)C[C@](C)(O)C[C@@H]3O | no (0)
CCCN(CCC)C(=S)N/N=C(/C)c1ccccc1O | no (0)
C/C(=N\NC(=S)N1CCN(c2ccccn2)CC1)c1ccccn1 | no (0)

How was "CCC[CH2][Ge]([CH2]CCC)([CH2]CCC)[O]C(C)=O" classified in this test?
no (0)
